// provenance: ChEMBL document CHEMBL4689842

Here the recorded Growth Rate is given for each entry.
- Tested on: Fibroblast
- assay-procedure: Incucyte cell viability with human fibroblast; also: filed as whole numbers so only -1 and 0 and 1 occur
- Type: toxicity, cell-based
- condition-label: 18 h, 10 µM, compound concentration 10 uM, replicate number 1, timepoint 18 hours
Keep the answer to the number alone.

Worked cases, Growth Rate given:
compound | result
O=C(NCC(=O)N1CCCC1)Nc1ccc2cnccc2c1 | 0
Cl.Clc1ccc(CCCOCCCN2CCCCC2)cc1 [PITOLISANT HYDROCHLORIDE] | 1
COc1cc(-c2cn([C@H]3CCc4ccccc4N(CC(F)(F)F)C3=O)nn2)ccc1-n1ccc(C)n1 | 1
O=C(O)Cn1c(C(=O)Nc2nc(-c3ccccc3Cl)cs2)cc2ccccc21 | 1
Cc1cccc(CN2CCN(C(c3ccccc3)c3ccc(Cl)cc3)CC2)c1.Cl.Cl (stereo unspecified) | 1

Kindly consider the entry below.
What value of Growth Rate has been recorded for this entry: Cc1csc(NC(=O)c2cc(F)cc(Oc3cncnc3)c2)n1 1
